Sourced from PubChem BioAssay (NCI)

System: HOP-62 NSCLC
Experiment: NCI-60 one-dose screen, 48 h (100 = growth as untreated, 0 = no growth, -100 = all killed)
Conditions: 10 µM unless noted
About 83,000 compounds went through this panel and 20% of them were active in at least one assay; those are over-represented in the sample as a whole.
measured_metric: growth (%)

compound	quantitative_result
Nc1c(Br)cc(O)c2c1C(=O)c1ccccc1C2=O	117
O=S(Cc1ccccc1)/C(=C/NC(=S)Nc1cc(Cl)ccc1Cl)c1ccccc1 (stereo not drawn)	92.8
NNc1ncccn1	101
Nc1nc(N)nc(N2CCCCC2)n1	104
Cc1ccc(S(N)(=O)=O)cc1Cl	110
O=C(Nc1ccc([N+](=O)[O-])cc1)C(=O)Nc1ccc([N+](=O)[O-])cc1	81
C=COC(=O)C(C)(C)C	104
Cc1nc(C)c(C(=O)O)cc1C(=O)O	106
Clc1ccc(/C=C/c2ccccn2)cc1	94.7
COC(=O)C1=C(C)C(=O)CC1	114
CCOc1ccc(NC(=S)N2CCC(CCCC3CCN(C(=S)Nc4ccc(OCC)cc4)CC3)CC2)cc1	104
Cc1cc2c3ccc(C)[n+](C)c3ccc2n1C	33.8
Nc1nc2nnc(-c3ccccc3)c(-c3ccccc3)n2n1	16.7

---

System: MDA-MB-435 melanoma
Assay: NCI-60 one-dose screen, 48 h
Conditions: 10 µM unless noted
The panel holds about 83,000 compounds, 20% with a hit somewhere; the sample as a whole holds those more often. The source made the active and inactive calls. The calls were made as follows: active = growth percent below 10; inactive = the rest.
Outcome codes: 1.0 = active, 0.0 = inactive

compound	label_class
O=Cc1ccc(O)c(O)c1	0.0
CC1(C)C2CCC1(C)C1(C2)OCCS1 (configuration not stated)	0.0
C=C1CC2(OC1=O)C(=O)N(C)c1ccc(I)cc12 (configuration not stated)	1.0
CC1(C)CCC(C)(C)NC(=S)N1	0.0
COc1cc2c(c(OC)c1OC)-c1ccc(SC)c(=O)cc1[C@@H](NC1OC(CO)C(O)C(O)C1O)CC2 (some centres not stated)	1.0
C/C(Cc1ccccc1)=N\O	0.0
Cc1ccc(S(=O)(=O)Oc2ccc3sc4c(CO)ccc(NCCN(C)C)c4c(=O)c3c2)cc1	1.0
O=C(Nc1cccc(Cl)c1)c1ccc(Cl)cc1Cl	0.0
C=COC(=O)CCOCC(CC)CCCC (configuration not stated)	0.0
CCOC(=O)/C(C)=C\c1ccc(OC)c(OC)c1	0.0
Cc1c(-c2ccc(C3CCCCC3)cc2)nc2ccc(F)cc2c1C(=O)O	0.0
CNc1ccccc1C(=O)N/N=C/C=C/c1ccccc1	1.0
CC(=O)N(CCCCCCN(C(C)=O)C(C)=O)C(C)=O	0.0
Nc1c(O)c(S(=O)(=O)O)c(O)c2c1C(=O)c1ccccc1C2=O	0.0
NNC(=O)c1ccccc1N	0.0
Cn1c(=O)[nH]c2ccccc2c1=O	0.0
COc1ccc2c(Cl)cc(NC(=O)Nc3c(C)cccc3C)nc2c1	0.0
O=C(OC1CCCC1)c1ccccc1Cl	0.0
S=C=Nc1ccc2ccccc2c1	0.0
N#Cc1ccc2nc[nH]c2c1	0.0
NNC(=O)CCCCl	0.0
CCOC(=O)c1ccc(Nc2sc(C(=O)c3ccc(Br)cc3)c(N)c2C#N)cc1	1.0
COc1ccc(-c2csc(NC(=O)Nc3nc(-c4ccc(OC)cc4)cs3)n2)cc1	0.0
N#C/C(=C\c1ccc(C#N)cc1)C(=O)c1ccccc1	0.0
COc1ccc(Nc2cc(Cl)ccc2C(=O)O)cn1	0.0
CC1CC2C3CCC4=CC(=O)CCC4(C)C3CCC2(C)C1(O)C(=O)CO (configuration not stated)	0.0
Cc1ccc(NCN2C(=O)c3ccccc3C2=O)c(C)n1	0.0

---

System: NCI-H23 lung
Test: NCI-60 one-dose screen, 48 h
Settings: 10 µM unless noted
Compounds without any hit were thinned out: in the full panel of roughly 83,000, 20% have a hit. Calls of active or inactive are those of the source. The calls were made as follows: active = growth percent below 10; inactive = the rest.
Possible outcomes: active, inactive

molecule	label_class
O=[N+]([O-])c1ccc(-c2nc(N(CCO)CCO)c3ccccc3n2)o1	active
Cc1c(Cl)cccc1N=C=S	inactive
Cc1onc(-c2ccccc2Cl)c1C(=O)Cl	inactive
Cn1c(=O)c2nc3c(=O)n(C)c(=O)n(C)c3nc2n(C)c1=O	inactive
O=S1(=O)c2ccccc2Oc2ccccc21	inactive
O=C(OC1CCCC1)c1ccccc1Cl	inactive
CC(=O)Nc1ccc(O)c(C)c1	inactive
NC(=S)c1c(N)n(C2OC(CO)C(O)C2O)c2ncnc(N)c12 (stereo not drawn)	active
Nc1ccc2ccccc2c1-c1c(N)ccc2ccccc12	inactive
CCCCCC(=O)OCCC1CCCCC1	inactive
CCOC(=N)CC(=O)Nc1cccc(C)c1Cl	inactive
CS(=O)CC(=N\O)/C(CS(C)=O)=N\O (stereo not drawn)	inactive
CC(CC(CCC(=O)O)(c1ccccc1)c1ccccc1)N(C)C (stereo not drawn)	inactive

---

Tested on: SNB-19 CNS
Assay: NCI-60 one-dose screen, 48 h (100 = growth as untreated, 0 = no growth, -100 = all killed)
Conditions: 10 µM unless noted
The panel holds about 83,000 compounds, 20% with a hit somewhere; the sample as a whole holds those more often.
# growth listing for each entry below
measured_metric: growth (%)

compound	measured_metric	display_unit	quantitative_result
Cc1ccc(N2C(=O)c3cccc4c(N)c(S(=O)(=O)O)cc(c34)C2=O)cc1	growth	%	112
Clc1ncnc2nc[nH]c12	growth	%	96.4
Oc1cc(O)c2c(c1)O[C@H](c1ccc(O)c(O)c1)[C@@H](O)C2	growth	%	101
COC(c1ccc2c(c1)OCO2)C(C)Br (stereo unspecified)	growth	%	101
O=C(c1cccc(C(=O)c2ccc3c4c(cccc24)C(=O)N(c2ccccc2)C3=O)c1)c1ccc2c3c(cccc13)C(=O)N(c1ccccc1)C2=O	growth	%	111
C=CCNC(=S)N/C=C(/C(=O)c1ccccc1)c1ccccc1	growth	%	106
CCOC(=O)c1ccc(C(C)(C)C)cc1	growth	%	112
OCCOc1ccc(-c2cc(-c3ccccn3)nc(-c3ccccn3)c2)cc1	growth	%	20.6
OC(CCN1CCCCC1)(c1ccccc1)c1ccccc1	growth	%	110
ClCc1cccc2c(CCl)cccc12	growth	%	70.4
CC(=O)/C(C)=N\OC(=O)Nc1ccccc1	growth	%	98

---

Tested on: EKVX NSCLC
Assay: NCI-60 one-dose screen, 48 h (100 = growth as untreated, 0 = no growth, -100 = all killed)
Details: 10 µM unless noted
Compounds without any hit were thinned out: in the full panel of roughly 83,000, 20% have a hit.
Consider the following compounds and their measured growth readings.

compound	growth / %
O=C(N/N=C\c1ccc(Cl)cc1Cl)c1ccncc1	101
Oc1cc(O)c2c(c1)O[C@H](c1ccc(O)c(O)c1)[C@@H](O)C2	99.4
O=C1C=C(c2ccccc2)C(O)(c2ccccc2)C1 (stereo not drawn)	89.8
CC1CC2C3CCC4=CC(=O)CCC4(C)C3CCC2(C)C1(O)C(=O)CO (stereo not drawn)	99.4
CC(=O)C[n+]1ccc(C)cc1Sc1ccccc1C	103
Nc1cc(N)ncn1	102
CC(=O)[C@@]1(O)CC[C@H]2[C@@H]3CC[C@@H]4CC(=O)CC[C@]4(C)[C@H]3[C@@H](O)C[C@@]21C	88.9
O=C(NC(=S)N1CC=CCC1)c1ccccc1	111
S=C=Nc1ccc2ccccc2c1	103
Nc1ncnc2c1ncn2C1OC(CO)C2OC21 (stereo not drawn)	105
COc1cc(C(=O)O)c(O)c(C(C)(C)C)c1	102
CN(C)c1ccc2c(N(C)C)cc(N(C)C)nc2c1	75.8
CCOc1ccccc1NC(=O)CCl	111
CCOC(=O)C1(N)CCCCC1	97.5
CC(C)Sc1ncnc2nc[nH]c12	94.7
CC(C)C1CCC(C)C(O)C1 (stereo not drawn)	102
CCOC(OCC)C(=O)c1ccccc1	109
O=C(O)Cc1ccccn1	109
CC(CCC#N)(CCC#N)C(=O)c1ccccc1	115
C=C(OC(C)=O)c1ccccc1	111
O=c1n(CC2CO2)c(=O)n(CC2CO2)n1CC1CO1 (stereo not drawn)	97.4
Cc1ccc(OC(=O)c2ccccc2)cc1	122
N#C/C(=C\c1ccc2c(c1)OCO2)c1ccccc1	80.9
COc1ccc(Br)c(C=O)c1	83.2
COc1cc(C(=O)NC(=S)NCc2ccncc2)cc(OC)c1OC	99.4
COc1cc(-c2ccc(NC(=O)CC(C)=O)c(OC)c2)ccc1NC(=O)CC(C)=O	108
CC(C)(CC(=O)O)CC(=O)O	97.4
COC1C(=O)CCC2(CO2)C1(O)C1(C)OC1CCC(C)C (stereo not drawn)	76.2

---

Test system: SK-MEL-5 melanoma
Test: NCI-60 one-dose screen, 48 h (100 = growth as untreated, 0 = no growth, -100 = all killed)
Details: 10 µM unless noted
The panel holds about 83,000 compounds, 20% with a hit somewhere; the sample as a whole holds those more often.

compound	display_unit	growth
S=c1nc(-c2ccccn2)c(-c2ccccn2)n[nH]1	%	108
CC(C)(C)CC1(C)NC(=O)NC1=O (stereo not drawn)	%	108
COc1cccc(C(=O)O)c1OC	%	104
O=S(=O)(c1ccc(NC(=S)NCc2cccnc2)cc1)N1CCCCC1	%	74.2
CC1(C)CCC(C)(C)NC(=S)N1	%	105
O=c1nc(Nc2cccc(Cl)c2)oc2cc(Cl)oc(=O)c12	%	106
Clc1cccc(Cl)c1C1CSc2ccccc2N=C1c1ccccc1 (stereo not drawn)	%	86.8
CCC(=O)C1C(=O)c2ccccc2C1=O	%	110
CCOC(=O)/C(O)=C(\C=N\C(=S)Nc1ccc(Cl)c(Cl)c1)C(=O)OCC	%	91.7
COCC(N)=O	%	102
O=C1C=C(c2ccccc2)C(O)(c2ccccc2)C1 (stereo not drawn)	%	106
NNC(=O)CCCCl	%	102
C/C(=N\Nc1ccc([N+](=O)[O-])cc1[N+](=O)[O-])c1ccc(Br)cc1	%	100
O=C1C=C[C@H](O)[C@@]2(CO)O[C@@H]12	%	100
Nc1ncc([N+](=O)[O-])cn1	%	94.6
CCCc1cccc(CCC)c1NC(=O)Nc1cc(Cl)cc(Cl)c1	%	94.3
CC(=O)OC(C)c1cccc(C#N)c1 (stereo not drawn)	%	99.1
COc1cc(C(=O)N2CCN(c3ccccc3)CC2)c2ccccc2n1	%	16.8
O=C1NCC2CCCC1C2 (stereo not drawn)	%	107
C=CC(=O)OC1CCC(C(C)(C)CC)CC1 (stereo not drawn)	%	104
O=S(=O)(O)c1cccc2cccnc12	%	107
C(=C\c1ccncc1)/c1ccncc1	%	101
CN(C)c1ccc2nc3ccc(=[N+](C)C)cc-3oc2c1	%	23.5
O=C(c1ccc(Cl)cc1)N1CCCCC1	%	100
O=C1NC(=O)C(c2ccccc2)O1 (stereo not drawn)	%	104
OCC1OC(n2ccc3c2ncn2ncnc32)C(O)C1O (stereo not drawn)	%	45.4
NC(=O)NCCO	%	98
CC(C)c1ccc(C(=O)OCCCl)cc1	%	100
